// data source = patent US10526316B2

Target: PI3Kδ (Homo sapiens)
Sequence (O00329 1-1044): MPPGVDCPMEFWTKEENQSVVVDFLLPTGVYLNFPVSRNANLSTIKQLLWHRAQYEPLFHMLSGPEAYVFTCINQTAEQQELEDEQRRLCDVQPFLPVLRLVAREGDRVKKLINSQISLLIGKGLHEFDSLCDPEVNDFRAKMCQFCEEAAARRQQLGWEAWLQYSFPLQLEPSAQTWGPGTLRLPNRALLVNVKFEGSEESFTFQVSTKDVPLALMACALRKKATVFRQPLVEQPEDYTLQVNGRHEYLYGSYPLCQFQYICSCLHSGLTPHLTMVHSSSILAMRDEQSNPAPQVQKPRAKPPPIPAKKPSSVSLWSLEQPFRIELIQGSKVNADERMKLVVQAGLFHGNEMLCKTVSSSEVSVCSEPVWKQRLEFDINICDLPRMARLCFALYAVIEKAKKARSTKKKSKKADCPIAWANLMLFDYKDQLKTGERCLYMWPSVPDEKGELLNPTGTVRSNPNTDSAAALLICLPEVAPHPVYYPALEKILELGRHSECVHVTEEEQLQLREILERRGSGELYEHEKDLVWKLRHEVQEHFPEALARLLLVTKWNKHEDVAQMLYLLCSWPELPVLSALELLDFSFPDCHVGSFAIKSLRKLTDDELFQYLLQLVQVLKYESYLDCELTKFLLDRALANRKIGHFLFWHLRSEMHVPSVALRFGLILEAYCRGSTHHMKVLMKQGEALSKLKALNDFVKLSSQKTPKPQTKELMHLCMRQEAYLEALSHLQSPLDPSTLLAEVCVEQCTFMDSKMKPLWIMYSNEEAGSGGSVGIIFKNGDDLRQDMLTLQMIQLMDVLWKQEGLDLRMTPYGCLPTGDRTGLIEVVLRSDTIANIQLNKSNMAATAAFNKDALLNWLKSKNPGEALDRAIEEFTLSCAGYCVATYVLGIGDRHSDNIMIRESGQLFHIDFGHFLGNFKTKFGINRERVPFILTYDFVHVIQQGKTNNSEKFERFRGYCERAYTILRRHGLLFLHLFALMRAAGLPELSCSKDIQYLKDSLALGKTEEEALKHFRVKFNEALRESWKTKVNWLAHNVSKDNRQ
TEST READOUT: pKd
Bear in mind: pKd is minus log10 of a mol/L concentration; give just that figure.

Completed entries (count: 3):
O=C(c1cc(C2CCCN2c2cc(F)cc(F)c2)c2nc(N3CCOCC3)cnc2c1)N1CC(CO)C1 (stereo not shown) : 7.57
CN(C)C(=O)c1cc(NCc2ccc(F)cc2)c2nc(N3CCOCC3)cnc2c1 : 5.80
CN(C)C(=O)c1cc(N2CCC2c2ccc(F)cc2)c2nc(N3CCOCC3)cnc2c1 (single isomer, unassigned) [Compound 397b] : 6.06

Attention now shifts to the item below.
[Q] Retrieve pKd measured for CN(C)C(=O)c1cc(C(CO)N(C)c2cccc(F)c2)c2nc(N3CCOCC3)cnc2c1 (stereo not shown) and print it.
[A] 5.49

* * *

What follows is a collection of pKd values obtained with kinase enzymes (Homo sapiens, UniProt P48736).
Sequence (P48736 whole entry): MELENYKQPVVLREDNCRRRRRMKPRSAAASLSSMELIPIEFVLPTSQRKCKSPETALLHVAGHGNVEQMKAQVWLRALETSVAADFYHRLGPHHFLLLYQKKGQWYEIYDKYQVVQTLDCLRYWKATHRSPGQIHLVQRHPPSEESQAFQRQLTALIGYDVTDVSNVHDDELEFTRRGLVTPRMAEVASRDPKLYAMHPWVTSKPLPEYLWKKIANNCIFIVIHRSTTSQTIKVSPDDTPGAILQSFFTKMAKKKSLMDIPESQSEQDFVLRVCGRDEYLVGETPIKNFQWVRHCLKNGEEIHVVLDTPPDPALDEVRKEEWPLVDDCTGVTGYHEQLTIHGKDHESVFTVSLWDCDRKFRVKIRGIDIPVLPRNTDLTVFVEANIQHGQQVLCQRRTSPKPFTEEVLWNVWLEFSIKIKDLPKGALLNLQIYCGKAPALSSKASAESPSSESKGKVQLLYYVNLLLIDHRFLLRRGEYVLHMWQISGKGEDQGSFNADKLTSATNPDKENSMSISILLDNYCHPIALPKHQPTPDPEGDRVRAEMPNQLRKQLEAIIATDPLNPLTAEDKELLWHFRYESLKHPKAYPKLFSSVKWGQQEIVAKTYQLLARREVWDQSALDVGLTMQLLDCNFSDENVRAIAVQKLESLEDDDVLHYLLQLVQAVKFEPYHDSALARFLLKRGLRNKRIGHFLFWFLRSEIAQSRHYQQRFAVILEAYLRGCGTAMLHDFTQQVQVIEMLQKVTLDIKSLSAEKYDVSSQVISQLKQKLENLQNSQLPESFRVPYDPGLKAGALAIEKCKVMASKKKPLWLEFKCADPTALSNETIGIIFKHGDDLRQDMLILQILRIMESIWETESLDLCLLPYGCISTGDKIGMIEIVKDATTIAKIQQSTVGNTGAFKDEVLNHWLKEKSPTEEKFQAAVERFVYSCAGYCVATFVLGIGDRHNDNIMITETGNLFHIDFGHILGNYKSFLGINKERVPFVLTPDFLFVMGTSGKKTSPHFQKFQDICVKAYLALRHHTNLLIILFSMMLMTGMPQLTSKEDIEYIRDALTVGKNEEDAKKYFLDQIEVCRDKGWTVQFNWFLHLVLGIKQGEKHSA
pKd: −log10 of the molar value.

O=C(NCCO)c1cc(N2CCC2c2ccc(F)cc2)c2nc(N3CCOCC3)cnc2c1 (single isomer, unassigned) [Compound 391a] : < 4.52

[Q] Please supply the value of reported pKd for the item CN[C@H]1CCN(C(=O)c2cc(C(C)Oc3ccc(F)c(F)c3)c3nc(N4CCOCC4)cnc3c2)C1 (single isomer, unassigned) [Compound 370b]
[A] < 4.52

[Q] Output pKd of CC(Oc1cc(F)cc(F)c1)c1cc(C(=O)N(C)CCO)cc2ncc(N3CCOCC3)nc12 (single isomer, unassigned) [Compound 60]
[A] < 4.52

[Q] Fill in pKd for record CN(Cc1cc(F)cc(F)c1)c1cc(C(=O)N2CCNC(C(F)(F)F)C2)cc2ncc(N3CCOCC3)nc12 (centres unmarked) [Compound 319b]
[A] < 4.52

[Q] For the compound `CN(C)C(=O)c1cc(N2CCC[C@@H]2c2cc(F)cc(F)c2)c2nc(C3=CCOCC3)cnc2c1` , report pKd.
[A] < 4.52

[Q] Provide one value: measured pKd of COC(=O)c1cc(C2CCCN2c2cc(F)cc(F)c2)c2nc(N3CCOCC3)cnc2c1 (single isomer, unassigned) [Compound 252]
[A] < 4.52

[Q] Report pKd, nothing else, for this compound: CNCCN(C)C(=O)c1cc(C(C)Oc2cc(F)c(F)c(F)c2)c2nc(N3CCOCC3)cnc2c1 (single isomer, unassigned) [Compound 379b]
[A] < 4.52

[Q] Respond only with pKd recorded for CC(Oc1cc(F)c(F)c(F)c1)c1cc(C(=O)N(C)C2CCNC2)cc2ncc(N3CCOCC3)nc12 (single isomer, unassigned) [Compound 404a]
[A] < 4.52

[Q] Indicate its recorded pKd; the compound in question is CN(Cc1cc(F)cc(F)c1)c1cc(C(=O)N2CCNC(C(F)(F)F)C2)cc2ncc(N3CCOCC3)nc12 (single isomer, unassigned) [Compound 319a]
[A] < 4.52

[Q] Answer with reported pKd of CNCCN(C)C(=O)c1cc(C(C)Oc2cc(F)c(F)c(F)c2)c2nc(N3CCOCC3)cnc2c1 (centres unmarked) [Compound 379a]
[A] < 4.52

[Q] For CC(Oc1ccc(F)c(F)c1)c1cc(C(=O)N2CC[C@H](N(C)C)C2)cc2ncc(N3CCOCC3)nc12 (single isomer, unassigned) [Compound 363b] , write its pKd.
[A] < 4.52

* * *

Catalogue of compounds with associated Kd
molecular target: PI3Kδ (Homo sapiens, UniProt O00329)

Guide cases for Kd, answers given:
CC(Nc1cccc(F)c1)c1cc(C(=O)NC[C@@H](C)O)cc2ncc(N3CCOCC3)nc12 (single isomer, unassigned) [Compound 338b] : > 30.2 µM
CC(Nc1cc(F)cc(F)c1)c1cc(CN2CCn3nccc3C2)cc2ncc(N3CCOCC3)nc12 (single isomer, unassigned) [Compound 222] : > 30.2 µM

Let us examine a further case.
[Q] Quote PI3Kδ (Homo sapiens, UniProt O00329) Kd for entry Cc1ccc(NC(C)c2cc(C(=O)NCCO)cc3ncc(N4CCOCC4)nc23)cc1F (single isomer, unassigned) [Compound 295b] .
[A] > 30.2 µM

* * *

target: PI3Kβ (Homo sapiens); construct: purchased DiscoveRx Corporation, San Diego (contract service, KINOMEscan); assay: Enzyme binding assay (KINOMEscan, DiscoveRx); conditions: PIK3Cβ_h, read-out: Kd PIK3Cβ_h
Sequence (P42338 whole entry): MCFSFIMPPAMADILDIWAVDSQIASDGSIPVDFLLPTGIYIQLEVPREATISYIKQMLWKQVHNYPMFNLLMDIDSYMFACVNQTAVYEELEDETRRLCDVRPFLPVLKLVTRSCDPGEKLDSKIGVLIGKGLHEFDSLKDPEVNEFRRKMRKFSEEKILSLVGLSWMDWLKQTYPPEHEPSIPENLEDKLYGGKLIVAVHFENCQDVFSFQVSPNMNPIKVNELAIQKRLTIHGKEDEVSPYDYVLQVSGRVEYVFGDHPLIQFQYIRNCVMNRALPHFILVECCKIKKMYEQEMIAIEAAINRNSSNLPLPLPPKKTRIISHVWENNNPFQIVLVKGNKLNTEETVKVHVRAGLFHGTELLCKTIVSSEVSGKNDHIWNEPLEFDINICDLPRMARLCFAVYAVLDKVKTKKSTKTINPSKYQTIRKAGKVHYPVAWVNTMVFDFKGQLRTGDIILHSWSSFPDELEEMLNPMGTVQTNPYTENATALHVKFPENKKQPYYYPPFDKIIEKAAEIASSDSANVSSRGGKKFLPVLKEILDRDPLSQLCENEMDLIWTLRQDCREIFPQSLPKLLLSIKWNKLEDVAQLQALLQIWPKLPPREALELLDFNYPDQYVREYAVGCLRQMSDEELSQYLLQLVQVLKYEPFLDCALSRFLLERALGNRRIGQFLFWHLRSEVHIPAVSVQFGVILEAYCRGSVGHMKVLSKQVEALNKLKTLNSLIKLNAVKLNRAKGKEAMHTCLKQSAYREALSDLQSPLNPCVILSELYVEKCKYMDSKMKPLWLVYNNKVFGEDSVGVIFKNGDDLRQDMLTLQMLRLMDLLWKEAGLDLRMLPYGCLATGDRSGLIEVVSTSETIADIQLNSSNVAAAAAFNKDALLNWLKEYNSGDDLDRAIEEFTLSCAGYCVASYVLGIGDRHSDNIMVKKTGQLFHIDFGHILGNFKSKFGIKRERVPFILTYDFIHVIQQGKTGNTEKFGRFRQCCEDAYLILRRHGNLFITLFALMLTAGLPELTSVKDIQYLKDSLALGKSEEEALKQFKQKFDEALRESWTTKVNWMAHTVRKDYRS
Documented pKd across a set of compounds
Bear in mind: pKd is minus log10 of a mol/L concentration; give just that figure.

Guide cases for pKd, answers given:
[2H]C([2H])(O)C([2H])([2H])NC(=O)c1cc(C(C)Nc2cccc(F)c2)c2nc(N3CCOCC3)cnc2c1 (single isomer, unassigned) [Compound 408a] : 8.52
CNCCOCCN(C)C(=O)c1cc(C(C)Nc2cc(F)cc(F)c2)c2nc(N3CCOCC3)cnc2c1 (single isomer, unassigned) [Compound 174] : 5.92
O=C(NCCO)c1cc(CNc2cc(F)cc(F)c2)c2nc(N3CCOCC3)cnc2c1 : 7.43
CN(C)C(=O)c1cc(N2CCC[C@@H]2c2cc(F)cc(F)c2)c2nc(C3=CCOCC3)cnc2c1 : 6.59
CN(C)C(=O)c1cc(N2CCC2c2ccc(F)cc2)c2nc(N3CCOCC3)cnc2c1 (single isomer, unassigned) [Compound 397a] : 5.85

[Q] Assign pKd to the following record: CC(Oc1cccc(F)c1)c1cc(CO)cc2ncc(N3CCOCC3)nc12 (single isomer, unassigned) [Compound 88]
[A] 8.30

* * *

target: kinase enzymes (Homo sapiens, UniProt P48736)
We'd kindly ask you to apply these Kd classes: bottom end: < 4 µM; midrange: ≥ 4 µM and < 20 µM; top end: ≥ 20 µM

[Q] Exercise: read the entry CNCC(O)c1cc(C2CCCN2c2cc(F)cc(F)c2)c2nc(N3CCOCC3)cnc2c1 (stereo not drawn) [Compound 19] and state which class it falls under.
[A] bottom end

* * *

Reported Kd, kinase enzymes (Homo sapiens, UniProt P42336).

Solved entries:
CC(Nc1cc(F)c(F)c(F)c1)c1cc(C(=O)NCC(C)(C)O)cc2ncc(N3CCOCC3)nc12 (single isomer, unassigned) [Compound 292b] : > 30.2 µM
COC(=O)c1cc(C(C)Nc2cccc(F)c2)c2nc(N3CCOCC3)cnc2c1 (single isomer, unassigned) [Compound 262b] : > 30.2 µM

[Q] Give the reported Kd for this compound. COC(=O)c1cc(C(C)Nc2cccc(F)c2)c2nc(N3CCOCC3)cnc2c1 (single isomer, unassigned) [Compound 262a]
[A] > 30.2 µM

* * *

Heads up, these molecules all have Kd values measured for kinase enzymes (Homo sapiens, UniProt P42345).

Consider the worked cases shown below.
CC(Nc1cc(F)c(F)c(F)c1)c1cc(C(=O)N2CCCN(C(C)C)CC2)cc2ncc(N3CCOCC3)nc12 (single isomer, unassigned) [Compound 388b] : > 30.2 µM
CC(C)NCCNC(=O)c1cc(C(C)Nc2ccc(F)c(F)c2)c2nc(N3CCOCC3)cnc2c1 (single isomer, unassigned) [Compound 364b] : > 30.2 µM
CC(Nc1cc(F)c(F)c(F)c1)c1cc(C(=O)NCC(C)(C)O)cc2ncc(N3CCOCC3)nc12 (single isomer, unassigned) [Compound 292a] : 32.4 µM

# context switch: different molecule, same Kd
[Q] Supply Kd measured with kinase enzymes (Homo sapiens, UniProt P42345) for CC(Nc1cc(F)cc(F)c1)c1cc(CN2CCOCC23COC3)cc2ncc(N3CCOCC3)nc12 (single isomer, unassigned) [Compound 195] .
[A] > 30.2 µM
